target: Beta-secretase 1 (Homo sapiens, UniProt P56817); test: Inhibition of BACE-1 in human HEK293 cells overexpressing APP 695 swedish mutation assessed as inhibition of amyloid beta (1 to 40) production by immunoprecipitation assay; format: cell-based
Sequence (P56817 whole entry): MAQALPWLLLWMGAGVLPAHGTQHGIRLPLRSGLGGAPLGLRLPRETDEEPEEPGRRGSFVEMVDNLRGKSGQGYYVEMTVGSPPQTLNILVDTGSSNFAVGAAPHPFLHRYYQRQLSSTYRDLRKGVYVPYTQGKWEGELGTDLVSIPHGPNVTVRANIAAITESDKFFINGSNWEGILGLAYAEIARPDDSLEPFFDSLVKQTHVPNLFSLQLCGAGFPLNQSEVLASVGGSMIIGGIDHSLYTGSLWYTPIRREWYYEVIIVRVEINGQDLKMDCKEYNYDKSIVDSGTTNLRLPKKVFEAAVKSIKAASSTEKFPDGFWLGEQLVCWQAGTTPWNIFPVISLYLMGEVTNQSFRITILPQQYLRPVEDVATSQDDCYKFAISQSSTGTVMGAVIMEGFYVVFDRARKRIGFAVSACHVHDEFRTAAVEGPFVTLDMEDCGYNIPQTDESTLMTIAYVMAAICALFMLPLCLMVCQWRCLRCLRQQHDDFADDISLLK
pIC50: −log10 of the molar value.
Criterion: pIC50 meeting or surpassing 8. Met: TRUE. Not met: FALSE.

1) CCC(C)[C@@]1(NC(C)=O)CCN([C@@H](CCc2ccccc2)C(=O)N[C@@H](Cc2cc(F)cc(F)c2)[C@H](O)[C@H]2C[C@@H](S(=O)(=O)Cc3ccc(F)cc3)CN2)C1=O (stereo partly specified) : TRUE
2) CCC(C)[C@@]1(NC(C)=O)CCN([C@@H](CCc2ccccc2)C(=O)N[C@@H](Cc2cc(F)cc(F)c2)[C@H](O)C2Cc3cccc(OC)c3CN2)C1=O (stereo partly specified) : FALSE
3) CCCN(CCC)C(=O)c1cc(C(=O)N[C@@H](Cc2cc(F)cc(F)c2)[C@H](O)[C@H]2C[C@@H](S(=O)(=O)CCC)CN2)cc(-c2ncco2)c1 : FALSE
4) CCC(C)[C@@]1(NC(C)=O)CCN([C@@H](CCc2ccccc2)C(=O)N[C@@H](Cc2cc(F)cc(F)c2)[C@H](O)C2Cc3ccccc3CN2)C1=O (stereo partly specified) : FALSE
5) CCCOc1cccc2c1CNC([C@@H](O)[C@H](Cc1cc(F)cc(F)c1)NC(=O)[C@H](CCc1ccccc1)N1CC[C@](NC(C)=O)(C(C)CC)C1=O)C2 (stereo partly specified) : FALSE

Data provenance: ChEMBL document CHEMBL1914436
